Assay: cell-free cyclolavandulylation activity screening of prenyltransferases, substrate resveratrol
Type: biochemical
Conditions: cell-free reaction with CLDS and DMAPP (CLPP donor), 28° C., 48 hours, QTOF LC/MS, with vs without prenyltransferase
parameter: presence of cyclolavandulylated product, Aromatic Compound (Substrate) Resveratrol

CnqP3PT: prenyltransferase, Accession: WP_047018069.1, SEQ ID NO: 16 (protein, listed as Streptomyces sp.) MSGAADVERVYSAMEEAARLLDITVSREKVRPALEAYHEVLADAVVVFSMASGRYATELDFSISVPAEAGDPYRVALAKGLTPRTDHPVGRLLADTQEHCPVSMFAFDGEITGGFKKTYAFFPTNDLQSASKLAEIPSMPDSVKENADLFARYGLDKVQMTSIDYKKKAVNLYFSEMSPDILGPDTVRSMLRDMGLKETGETGLTFARRSFSVYPTLNWETGRIERLCFAVISRDPTLAPAERAEDLAKFSKYANNAPYAYAGEARTLVYGLTLTPREEYYKLGSYYQISDIQRKLLKAFDSLND :: No
NapT9: prenyltransferase, Accession: ABS50490.1, SEQ ID NO: 14 (protein, listed as Streptomyces sp.) MSGATGAEKLYSAIEESARMVDAPFSRDKVWPTLSAFEGGFSDAGGVILSLQAGTHVPEMEYSAQVSPGISDPYARALASGILTETDHPVSTVLAEIVSLAPTSEHYIDCGIVGGFKKIYANFPHDQQTVAALAGLPSMPRAVGGNAEFFARHGLDRVALIGVDYVNKTINLYFQVSAATAGNLDQKTVSAMLHETGMSEPSDAMVAYACQAYRIYTTLSWDAQEILRIAFAPKPRRGIDPADLPARLEPRIEKFLRATPHKYPGALINATAAKWSPEREVLDLAAHYQVSAVQMKAIEAEEGQAS :: No
SvPT: prenyltransferase, Accession: WP_078899560.1, SEQ ID NO: 11 (protein, listed as Streptomyces sp.) MSEASELADIYSAIEETAQLLDVPCSRDKVQPALAAFGDGLADAHIVFSMATGERYKGELAFDFTVPTAAGDPYAIALANGLVEETDHPIRTLFSDVQKRCPVDSYGVDYGIVGGFKKTYISFPLGDLQRLSALVGIPSMPRALAEHADFFASHGLDDKVSAIAIDYAHRTWNVYFSGIPAEVKEPQTLQSVLQKFGLPEPSEQLMDFIRTSFAMYTTFGWDSTKAERICFSARSSDPTALPAQFEPQIGKFAKSAPYTYTGERVLTYAGALSPSEEFYKLATFYQKTSKLSDRVRPAT :: No

Origin of the recorded values: patent US20250043319A1
